Target: L7Ae (Archaeoglobus fulgidus, UniProt O29494 2-119)
Sequence (O29494 2-119): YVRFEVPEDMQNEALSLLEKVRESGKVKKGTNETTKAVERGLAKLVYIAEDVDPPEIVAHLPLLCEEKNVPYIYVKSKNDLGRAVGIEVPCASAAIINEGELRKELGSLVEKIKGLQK
Test: SPR (Biacore T200, RNA captured, protein analyte); SPR running buffer: 10 mM HEPES pH 7.4, 150 mM NaCl, 0.05% Surfactant P20, 1 mM MgCl2, 0.25 mM TCEP, 0.1 mg/ml BSA, 25 ug/ml yeast tRNA, 25 C; RNA captured by its 3' docking sequence on biotinylated 2'-OMe RNA
Details: protein: recombinant; tags: N-term Twin-Strep-tag; C-term 6xHis; hairpin with kink-turn
assayReadout: Kd

1. Box C/D Kt (Kt_SPR) (structured_RNA) RNA: GGAUCGCGUGAUCCGAAAGGUGACGAUCCAAAUCGACGAAAGACACAGAACG :: 0.0213 nM
